Numbers sourced from the NIST ThermoML archive (doi:10.1016/j.jct.2005.05.004).

assay: refractive index (Na D-line) (dimensionless); conditions: 298.15 K; 101.33 kPa; Liquid
ENDPOINT_LABEL: refractive index
API note: the answer field is a bare number with no unit suffix.

Query: refractive index; subject: CCI [iodoethane]
1.5095

# iterate: CO [methanol]
1.3262

# iterate: CCO [ethanol]
1.3592

# iterate: Cc1ccccc1 [toluene]
1.4938

# iterate: CCCO [propan-1-ol]
1.3829

* * *

Kindly state mass density for each of the entries shown.
details: 298.15 K; 101.33 kPa; Liquid; Vibrating tube method
Give a bare numeral; the unit kg/m3 is implied.

Query: mass density; subject: CCO [ethanol]
785.32

# iterate: Cc1ccccc1 [toluene]
862.28

# iterate: CCI [iodoethane]
1923.75

# iterate: CCCO [propan-1-ol]
799.69

# iterate: CO [methanol]
787.98
